assay procedure: murine CD8 T cell vesicle adhesion modulation – mouse 2C CD8+ T cells, flow cytometry, primary screen (AID 2052);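 as to response (vesicle binding): values below 100% mean blocked vesicle binding to the CD8+ T cells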
recorded conditions: 2C CD8+ T cell-vesicle binding, at 7 µM, stronger effect = lower value
Screen size: about 330,000 compounds; about 220 (0.067%) were called active. What follows is part of a selection rich in actives, with near analogues and random picks from the rest.
Task for the reader: assign each of the following compounds its reported response (vesicle binding).
Numbers only, in %.

CCOc1ccc(NC(=O)CC2C(=O)N(c3ccccc3)C(=O)N2CCOC)cc1 (centres undefined); 526

# per-item lookup of response (vesicle binding); items listed below
1. O=C1C=C(NCCNc2c(F)c(F)c(CO)c(F)c2F)CCC1
2. Cc1nn(Cc2ccc(C(=O)N3N=C(C(F)F)CC3(O)C(F)F)cc2)c(C)c1[N+](=O)[O-] (centres undefined)

### Response
[169, 446]

### Prompt Give its response (vesicle binding) value. Item: `CCNC(=O)Nc1ccc(S(=O)(=O)Nc2cnc(C)nc2C)cc1`
### Response 230

* * *

assay procedure: murine CD8 T cell vesicle adhesion modulation – mouse 2C CD8+ T cells, flow cytometry, primary screen (AID 2052);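 as to double positive events: binding gate set so that unloaded-vesicle control wells show 10% double positive cells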
recorded conditions: 2C CD8+ T cell-vesicle binding, at 7 µM, stronger effect = lower value; measured here: CD8+ vesicle-bound cell fraction
Hit rate of the full screen: of about 330,000 compounds, about 220 (0.067%) were called active. The full list was thinned out, with actives kept by preference.
Can you tell me double positive events for the items I'm about to list?
One number for each entry, in %.

C/C=C/c1ccc(OCC(=O)NNC(=O)CN(C)S(=O)(=O)c2ccc(C)cc2)c(OC)c1; 47.4
Cc1ccccc1CN(c1ccc(C(=O)NCC2CCCO2)cc1)S(C)(=O)=O (configuration not stated); 4.3
O=C(NCc1ccc2c(c1)OCO2)c1cc2c(s1)CS(=O)(=O)C2; 37.5

Look up double positive events for the entries below, preserving their order.
1. O=C(NCc1ccc2c(c1)OCO2)c1cc(F)c(F)cc1Cl
2. Cc1c(OC(C)C(=O)NCC2CCC(C(=O)O)CC2)ccc2c1oc(=O)c1ccccc12 (configuration not stated)
3. O=C(NC1CCCC1)C(c1c(F)cccc1Cl)N(C(=O)c1csnn1)C1CC1 (configuration not stated)

### Response
[11.4, 55.9, 17.4]

### Prompt Record request: double positive events value, item `CSc1ccccc1C(=O)OCC(=O)N1CCN(C(C)=O)CC1`
### Response 34.9

* * *

assay procedure: murine CD8 T cell vesicle adhesion modulation – mouse 2C CD8+ T cells, flow cytometry, primary screen (AID 2052);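 as to response (vesicle binding): values below 100% mean blocked vesicle binding to the CD8+ T cells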
recorded conditions: 2C CD8+ T cell-vesicle binding, at 7 µM, stronger effect = lower value
Out of some 330,000 compounds screened, about 220 (0.067%) were called active. The full list was thinned out, with actives kept by preference.
Record form. Attribute: response (vesicle binding). Fill in for each entry.
One number for each entry, in %.

Example results:
CCCN1CCN(C(=O)Cn2ncc3ccccc32)CC1; 326
O=C(NCc1cccnc1)c1ccccc1NC(=O)c1c(F)cccc1F; 104
O=C(NCc1ccncc1)C1CCCN(S(=O)(=O)c2ccc(Br)cc2)C1 (stereo not given); 342
CS(=O)(=O)N(CC(=O)Nc1ccc(F)cc1F)c1cccc([N+](=O)[O-])c1; 763
CCCn1nnnc1NCc1ccc(OC)cc1; 308

Working through the 8 compounds below one at a time, give response (vesicle binding) for each.
1. CCc1ccc(-n2c(SCc3cc(=O)n4cc(Br)ccc4n3)nc3[nH]ncc3c2=O)cc1
2. O=C(COc1ccccc1)Nc1ccc(N2CCN(C(=O)c3cccs3)CC2)cc1
3. COc1cc(N)c(Cl)cc1C(=O)OCC(=O)c1ccc2c(c1)NC(=O)CO2
4. CCn1cc(C(=O)N2CC=C(c3ccccc3)CC2)c(=O)c2ccc(C)nc21
5. CCCN=C1NC(=O)C(CC(=O)NCCc2ccc(OC)c(OC)c2)S1 (stereo not given)
6. Cc1cccc(C(=O)N2CCCC(Nc3ccc(C(C)C)cc3)C2)n1 (stereo not given)
7. CC1CCN(c2ccc(S(=O)(=O)Nc3cc(C(=O)O)cc(C(=O)O)c3)cc2[N+](=O)[O-])CC1
8. Cn1nnnc1NCc1ccc(Cl)c(Cl)c1

### Response
[314, 606, 484, 79.1, 112, 567, 234, 445]

The following compounds each have a reported value; give each one's response (vesicle binding).
1. Cc1cc(C)c(NC(=O)CSc2nc3ccncc3[nH]2)c(C)c1
2. Cc1ccccc1CN(c1ccc(C(=O)NCC2CCCO2)cc1)S(C)(=O)=O (stereo not given)
3. CCOc1ccc(S(=O)(=O)NCc2ccc3c(c2)OCO3)cc1C
4. CCc1nc2ccccc2c(C(=O)OC2CCCCC2=O)c1C (stereo not given)
5. CCCC(CCC(=O)OC)(C(=O)OCC)c1csc(N)n1 (stereo not given)

### Response
968
168
381
288
485

Report response (vesicle binding) for every entry below.
1. CCc1ccc(CNC(=O)C2CCN(c3nnc(C)c4c(C)n(-c5ccc(C)cc5)nc34)CC2)cc1
2. CC1(C)CC(=O)C=C(N2CCOCC2)C1

### Response
1. 623
2. 266

* * *

Give measured response (vesicle binding) for each item. Keep answers brief.
assay procedure: murine CD8 T cell vesicle adhesion modulation – mouse 2C CD8+ T cells, flow cytometry, primary screen (AID 2052);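 as to response (vesicle binding): values below 100% mean blocked vesicle binding to the CD8+ T cells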
recorded conditions: 2C CD8+ T cell-vesicle binding, at 7 µM, stronger effect = lower value
Hit rate of the full screen: of about 330,000 compounds, about 220 (0.067%) were called active. Many of the other results were omitted from the sample, so actives are more common in it than they were.

Completed entries (count: 5):
CC(=O)Nc1nc2c(s1)C(=O)NCC(C)(C)C2; 439% (inactive)
NC(=O)COc1ccc(C23CC4CC(CC(C4)C2)C3)cc1; 159% (inactive)
O=C(CN1CCN(C2CCCCC2)CC1)Nc1ccccc1N1CCCCC1; 0% (active)
CCn1c2c(c3ccc(OC)cc31)CCCC2=O; 241% (inactive)
CCOC(=O)c1cccc(NC(=O)C2CCCN(S(=O)(=O)c3cnc[nH]3)C2)c1 (stereo unspecified); 586% (inactive)

Parameter requested: response (vesicle binding). Apply to each item below.
1. COC(=O)[C@@H]1CC(O)CN1C(=O)C12CC3CC(CC(C3)C1)C2 (stereo partly specified)
2. O=C1C=C(c2cccc(Br)c2)C[C@@H](c2ccc(F)cc2)C1
3. CCCCOc1ccc(NC(=O)CSCC(=O)OCC)cc1
4. COc1cccc(C(=O)NNC(=O)/C=C/c2ccccc2)c1
5. COC(=O)C1=CO[C@@H](O[C@@H]2O[C@H](CO)[C@@H](O)[C@H](O)[C@H]2O)C2C1C[C@H](O)[C@@H]2C (stereo partly specified)
6. Cc1ccc(NC(=O)CN(C)S(=O)(=O)c2cnc[nH]2)cc1C
7. CCCn1cc(S(=O)(=O)c2ccc(C)cc2)c(=O)c2cc(OCC)ccc21
8. CO/N=C/c1ccc(N2CCN(C(=O)c3cccc(Cl)c3)CC2)c([N+](=O)[O-])c1

### Response
228% (inactive)
405% (inactive)
186% (inactive)
433% (inactive)
220% (inactive)
261% (inactive)
435% (inactive)
143% (inactive)

// batch mode: one response (vesicle binding) value per listed entry
1. Cc1ccc(-n2nc3c(c2NC(=O)CCC2CCCCC2)CS(=O)C3)cc1 (stereo unspecified)
2. CSc1sc(C(=O)NNC(=O)c2ccc(Cl)cc2)c2c1C=CCC2
3. CC1CC(C)(C)n2c(O)c(N=NC(N)=S)c3cccc1c32 (stereo unspecified)
4. Cc1cc(C)c(S(=O)(=O)c2cc(F)ccc2C)c(=O)[nH]1

### Response
834% (inactive)
168% (inactive)
405% (inactive)
185% (inactive)

Dear colleague, could you send me response (vesicle binding) for each of the items below? Thanks.
1. CC(=O)Nc1ccc(S(=O)(=O)Oc2ccc(Br)cc2C(=S)N2CCOCC2)cc1
2. CCN(CC(=O)Nc1c(F)cccc1F)C(=O)CN1c2cccc3cccc(c23)S1(=O)=O

### Response
1: 429% (inactive); 2: 247% (inactive)

Each compound below has a recorded value; state its response (vesicle binding).
1. Cc1ccc(OCC(=O)Nc2ccc(C(=O)O)cc2NC(=O)COc2ccc(C)c(C)c2)cc1C
2. CC(C)c1ccc(N(C(=O)c2ccco2)C(C(=O)NC2CCCC2)c2cccnc2)cc1 (stereo unspecified)

### Response
1. 196% (inactive)
2. 176% (inactive)
